# target.entity: T1, mmIL4R-mFc (Macaca mulatta IL-4R extracellular domain fused to murine IgG2a Fc) (Macaca mulatta)
# T1 chain: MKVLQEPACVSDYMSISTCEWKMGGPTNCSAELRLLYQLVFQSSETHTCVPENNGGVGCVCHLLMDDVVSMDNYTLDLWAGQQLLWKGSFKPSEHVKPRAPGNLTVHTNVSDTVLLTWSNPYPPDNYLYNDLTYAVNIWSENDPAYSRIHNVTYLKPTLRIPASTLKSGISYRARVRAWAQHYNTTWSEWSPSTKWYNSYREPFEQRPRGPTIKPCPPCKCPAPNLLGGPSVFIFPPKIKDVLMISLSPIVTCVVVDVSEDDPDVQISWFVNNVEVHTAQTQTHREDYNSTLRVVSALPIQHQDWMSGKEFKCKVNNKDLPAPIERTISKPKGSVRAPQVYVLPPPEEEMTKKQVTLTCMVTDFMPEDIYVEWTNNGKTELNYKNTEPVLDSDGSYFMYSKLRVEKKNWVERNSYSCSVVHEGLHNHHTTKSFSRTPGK
# assay.name: SPR Biacore X100, antibody captured, mmIL4R-mFc as analyte
value.kind: koff (s⁻¹)
A number alone suffices; assume s⁻¹.

Would you mind telling me what koff value was observed for L28F8-IgG4 (antibody, V domains shown, also called S1E6 light chain mutant L28F8) VH: EVQLVESGGGLVQPGGSLRLSCAVSGFTFSSYAMSWVRQAPGKGLEWVSSITGGGGGIYYADSVKGRFTISRDNSKNTVYLQMNSLRAEDTAVYYCAKDRISITIRPRYFGLDFWGQGTTVTVSS VL: DIVMTQSPLSLPVTPGEPASISCRSSQNVVYGNGYNYLDWYLQKSGQSPQLLIYLGTNVAAGVPDRFSGSGSGTDFTLKISRVEAEDVGFYYCMQSLQAPYTFGQGTKLEIKR ? 0.00519

Kindly review the next binder as well.
Would you mind telling me what koff value was observed for L28G5-IgG4 (antibody, V domains shown, also called S1E6 light chain mutant L28G5) VH: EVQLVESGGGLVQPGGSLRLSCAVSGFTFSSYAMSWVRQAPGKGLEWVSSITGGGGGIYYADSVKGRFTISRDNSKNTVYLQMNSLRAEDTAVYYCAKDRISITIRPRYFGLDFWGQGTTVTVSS VL: DIVMTQSPLSLPVTPGEPASISCRSSRNVIYGNGYNYLDWYLQKSGQSPQLLIYLGNNVAAGVPDRFSGSGSGTDFTLKISRVEAEDVGFYYCMQSLQAPYTFGQGTKLEIKR ? 0.00709
